target: GSK3b (GST-full length GSK3b) (Homo sapiens (Human), UniProt P49841); experiment: GSK3b TR-FRET kinase assay; assay type: biochemical; details: read-out: GSK3-B (TR-FRET 1 mM ATP); GMean; IC50; 1 mM ATP; geometric mean
Sequence (P49841 whole entry): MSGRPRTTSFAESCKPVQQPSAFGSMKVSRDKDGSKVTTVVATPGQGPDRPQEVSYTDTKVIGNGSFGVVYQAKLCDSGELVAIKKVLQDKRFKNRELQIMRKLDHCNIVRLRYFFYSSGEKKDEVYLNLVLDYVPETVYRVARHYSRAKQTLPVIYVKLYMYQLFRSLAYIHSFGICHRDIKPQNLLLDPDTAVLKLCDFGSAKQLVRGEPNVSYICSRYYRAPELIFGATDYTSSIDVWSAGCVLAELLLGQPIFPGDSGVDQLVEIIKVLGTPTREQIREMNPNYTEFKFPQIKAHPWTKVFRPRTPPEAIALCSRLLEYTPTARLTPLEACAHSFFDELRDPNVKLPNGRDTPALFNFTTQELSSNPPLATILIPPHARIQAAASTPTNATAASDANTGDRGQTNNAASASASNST
IC50: recorded values

Recorded IC50, per entry:
CC[C@]1(c2cccc(-c3cnn(C(C)(C)C)c3)c2)C2=C(CC(C)(C)NC2=O)Nc2n[nH]cc21 [Compound 949112]	> 5000 nM
CCC1(c2cccc(S(=O)(=O)C3CC3)c2)C2=C(CC(C)(C)NC2=O)Nc2n[nH]c(C(F)(F)F)c21 (stereo not drawn) [Compound 947859]	≤ 100 nM
CC[C@@]1(c2cccc(-c3ccnn3C)c2)C2=C(CC(C)(C)CC2=O)Nc2n[nH]c(C(F)(F)F)c21 [Compound 947372]	≤ 100 nM
CCC1(c2cccc(-c3ccncc3C)c2)C2=C(CC(C)(C)CC2=O)Nc2n[nH]cc21 (stereo not drawn) [Compound 943990]	100 to 1000 nM
CCC1(c2cccc(N3CCCC3)c2)C2=C(CC(C)(C)CC2=O)Nc2n[nH]c(C)c21 (stereo not drawn) [Compound 883874]	100 to 1000 nM

IC50 recorded for this compound, CCC1(c2cccc(-c3ccnc(C)c3)c2)C2=C(CC(C)(C)NC2=O)Nc2n[nH]c(Cl)c21 (stereo not drawn) [Compound 948998] , is 1000 to 5000 nM

IC50 recorded for this compound, CCC1(c2cccc(C(F)(F)F)c2)C2=C(CCN(c3cncnc3)C2=O)Nc2n[nH]cc21 (stereo not drawn) [Compound 948379] , is > 5000 nM

IC50 recorded for this compound, CCC1(c2cccc(C(F)(F)F)c2)C2=C(CCN(c3ccccn3)C2=O)Nc2n[nH]cc21 (stereo not drawn) [Compound 949310] , is > 5000 nM

IC50 recorded for this compound, CCC1(c2cccc(-c3cnn(C)c3)c2)C2=C(CC(C)(C)CC2=O)Nc2n[nH]cc21 (stereo not drawn) [Compound 819577] , is > 5000 nM

IC50 recorded for this compound, CCC1(c2cccc(-c3c(Cl)cncc3Cl)c2)C2=C(CC(C)(C)NC2=O)Nc2n[nH]cc21 (stereo not drawn) [Compound 948515] , is 100 to 1000 nM

IC50 recorded for this compound, CC(=O)N1CC2(C1)CC1(CO2)C2=C(CC(C)(C)CC2=O)Nc2n[nH]cc21 (stereo not drawn) [Compound 913058] , is 100 to 1000 nM

IC50 recorded for this compound, CC[C@]1(c2cccc([C@H](C)c3ncccn3)c2)C2=C(CC(C)(C)CC2=O)Nc2n[nH]cc21 [Compound 948060] , is 1000 to 5000 nM
